Experiment: Cytometry Cell-Based qHTS for Inhibitors of the mTORC1 Signaling Pathway in MEF cells (AID 2668);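 further: Tsc2-/- p53-/- mouse embryonic fibroblasts stably re-expressing wild-type Tsc2; percent cells positive for phospho-rpS6 Ser235/236 relative to propidium iodide stain; plate controls were DMSO wells for no effect and 7.5 nM rapamycin control wells for full effect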
Details: mTORC1 pathway readout; series mostly up to 38.3 µM
Description: NIH Molecular Libraries Probe Production Centers Network [MLPCN] NIH Chemical Genomics Center [NCGC] Assay Submitter (PI): Blenis, John; Hoffman, Greg; Harvard University […] For quantitative high throughput analysis of mTORC1 signaling, we developed a cell-based assay for immuno-fluorescence based detection of rpS6 phosphorylation on the Acumen Explorer that will be used a platform for the primary small molecule screen. […]
Records with an inconclusive call do not appear. Activity calls are given as the source filed them. The call rests on the fitted dose curve; in most records, active means well fitted inhibition curve with a large enough effect; inconclusive means small, poorly fitted or top-dose-only effect; inactive means flat fitted curve, though single readings scatter.
observable: outcome

Consider the worked cases shown below.
What does the record list as outcome for `Oc1cc2c(cc1O)CN(C(=S)NCCc1ccc(Cl)cc1)CCC2` ?
inactive

Same question, `O=C(O)CC[C@@H](C(=O)O)N1C(=O)c2ccccc2C1=O` this time
inactive

Similarly, `O=C(Nc1cccc(C(=O)Nc2ccc(S(=O)(=O)O)c3cc(S(=O)(=O)O)cc(S(=O)(=O)O)c23)c1)Nc1cccc(C(=O)Nc2ccc(S(=O)(=O)O)c3cc(S(=O)(=O)O)cc(S(=O)(=O)O)c23)c1` ?
inactive

Next compound up: Oc1ccc(C2CNCc3sccc32)cc1O (stereo not given)
inactive

Now consider `O=c1[nH]c2cc(C(F)(F)F)ccc2n1-c1cc(C(F)(F)F)ccc1O` .
inactive

And the next one, CCC1C(=O)OCC1Cc1cncn1C (stereo not given) ?
inactive

Next:
GET /values?readout=outcome&item= `O=C(O)[C@@H]1C[C@@H](C(=O)O)N1`
inactive

Now this one: CC(N)C(=O)OC(C)(C)Cc1ccc(Cl)cc1 (stereo not given)
inactive

`Cn1cc(C2=C(c3ccc(Cl)cc3Cl)C(=O)NC2=O)c2ccccc21` , same question.
inactive

Similarly, C#C[C@]1(O)CC[C@H]2[C@@H]3CCC4=Cc5oncc5CC4(C)[C@H]3CCC21C (stereo not given in full) ?
inactive

###

assay: qHTS profiling for inhibitors of Plasmodium falciparum proliferation (AID 504749);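 further: 0% = DMSO vehicle and full inhibition = artemisinin control; nearly all actives have a fitted effect of over 60% in size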; conditions: P. falciparum in erythrocytes, SYBR Green DNA, 72 h; at 28.7 µM (top of the series); parasite line B
Inconclusive results are not listed. Where a SMILES comes first, the peptide text is derived from it. [ ]: non-standard residue; d: D form. pGlu = O=C1CC[C@@H](C(=O)O)N1; Thz = O=C(O)[C@@H]1CSCN1
Task for the reader: assign each of the following compounds its reported activity, negative = inhibition.
Only the number, expressed in %, is required.

Fill in: activity, negative = inhibition of `COc1cc(/C=C/C(=O)N2CCN(CC(=O)N3CCCC3)CC2)cc(OC)c1OC` is ___
8.7

Same for `CCCCCCCCCCCCCCCCCC(=O)O`
-2.97

Now the compound `Oc1c(Br)cc(Br)c2cccnc12`
-18.5

And then `N=c1ccn2c(n1)O[C@H]1[C@H](O)[C@@H](CO)O[C@H]12` , what is it?
4.16

Try this compound next: `O=C(/C=C/c1ccccc1)NCCO`
-2.74

Can you check C=CC(N)CCC(=O)O (stereo not given) next?
10.5

Another compound: `CC1(C)[C@@H](O)CC[C@]2(C)[C@H]3C(=O)C=C4[C@@H]5C[C@@](C)(C(=O)O)CC[C@]5(C)CC[C@@]4(C)[C@]3(C)CC[C@@H]12`
-0.325

Query `O=C(OCc1ccccc1)c1ccccc1` next
-8.05

Item: `Cc1ccc(O)c(-n2nc3ccccc3n2)c1`
15.3

Also `Cc1[nH]cnc1CN1CCc2c(c3ccccc3n2C)C1=O` ?
7.41

`COc1cc2c3cc1Oc1cc(ccc1O)C[C@@H]1c4c(cc(OC)c(O)c4Oc4ccc(cc4)C[C@@H]3N(C)CC2)CC[N+]1(C)C` , same question.
8.98

Please give the result for `Nc1c(CC(=O)O)cccc1C(=O)c1ccc(Br)cc1` too.
11.2

Next: `CC1(C)C[C@@H]1C(=O)N/C(=C\CCCCSC[C@H](N)C(=O)O)C(=O)O`
-12.7

Item: `COc1ccc(/C=C/C(=O)Nc2ccccc2C(=O)O)cc1OC`
-0.207

Consider next the compound Cc1ccccc1CNc1ncnc2c1ncn2C1OC(CO)C(O)C1O (stereo not given) in the same way.
-2

Could you do the same for `O=C1CN(/N=C/c2ccc(-c3ccc([N+](=O)[O-])cc3)o2)C(=O)N1` , please?
-1.58

Here is the next compound: CC(C(=O)O)c1ccc2c(c1)[nH]c1ccc(Cl)cc12 (stereo not given)
2.58

Now the same for `CCCOC(=O)c1ccc(O)cc1`
3.75

Same question, O=C1CC[C@@H](C(=O)N2CSC[C@H]2C(=O)O)N1 ([pGlu]-[Thz]-OH) this time
2.84

Same lookup for CC(N)C(=O)OC(C)(C)Cc1ccc(Cl)cc1 (stereo not given) , please.
0.818

Next compound up: `CCCCC[C@H](O)/C=C/[C@@H]1[C@@H](C/C=C\CCCC(=O)O)[C@@H](O)C[C@H]1O`
11

Thanks! And `CN1CCN(c2cc3c(nn2)Oc2ccccc2N3C)CC1` ?
1.64

Field entry: `COc1cc(CNC(=O)CCCC/C=C/C(C)C)ccc1O`
8.8

Similarly, `O=C(O)[C@H](CC(=O)N1C[C@H]2CCCC[C@H]2C1)Cc1ccccc1` ?
2.21

Here is the next compound: `Nc1cc(-c2ccncc2)c[nH]c1=O`
15.4

###

experiment: qHTS of pediatric cancer cell lines to identify multiple opportunities for drug repurposing: Primary screen for Rh41 cells (AID 1347108); details: Rh41 rhabdomyosarcoma viability, CellTiter-Glo luminescence, 48 h; series mostly up to 46 µM; further: nearly all actives have a fitted effect of over 70% in size
Records with an inconclusive call do not appear. The source made the active and inactive calls. Calls come from the whole dose curve; as a rule, active = well fitted cell-killing curve with a large enough effect; inconclusive = small, poorly fitted or top-dose-only effect; inactive = no such curve, though single readings can be large or run the other way.
# output must be one of true (1) for active, false (0) for inactive

Recorded test outcome, item `CCCCCCCCCCCCCCCCCC(=O)O`
false (0)

Can you check `CNC(=O)c1c(I)c(NC(=O)CCCCC(=O)Nc2c(I)c(C(=O)O)c(I)c(C(=O)NC)c2I)c(I)c(C(=O)O)c1I` next?
false (0)

And the next one, `c1ccc2sc(SSc3nc4ccccc4s3)nc2c1` ?
false (0)

Moving on to `Cc1ccc(C(=O)c2ccc(CC(=O)O)n2C)cc1`
false (0)

How about this molecule: `CO[C@@]1(NC(=O)Cc2cccs2)C(=O)N2C(C(=O)O)=C(COC(N)=O)CS[C@@H]21`
false (0)

How about this molecule: `O=Cc1ccc(O)c(O)c1O`
false (0)

Query `Cc1ccc(O)c(-n2nc3ccccc3n2)c1` next
false (0)

Would you kindly repeat that for `Nc1c(CC(=O)O)cccc1C(=O)c1ccc(Br)cc1` ?
false (0)

Similarly, `O=C(O)Cc1ccc2c(c1)C(=O)c1ccccc1CO2` ?
false (0)

Proceed to `COc1cccc2c1C(=O)c1c(O)c3c(c(O)c1C2=O)C[C@@](O)(C(=O)CO)C[C@@H]3O[C@H]1C[C@H](N)[C@H](O[C@@H]2CCCCO2)[C@H](C)O1`
true (1)

`O=c1cc(-c2ccccc2)oc2ccccc12` , same question.
false (0)

Also `CN(C)CCn1nnnc1SCC1=C(C(=O)O)N2C(=O)[C@@H](NC(=O)Cc3csc(N)n3)[C@H]2SC1` ?
false (0)

###

target: Cytochrome P450 2C9 (Homo sapiens); assay: qHTS Assay for Inhibitors and Substrates of Cytochrome P450 2C9 (AID 883); conditions: recombinant CYP2C9, luciferin-H luminescence, 60 min; series mostly up to 57.1 µM; further: nearly all actives have a fitted effect of over 60% in size
Records with an inconclusive call do not appear. Calls of active or inactive are those of the source. Calls come from the whole dose curve; as a rule, active = well fitted inhibition curve with a large enough effect; inconclusive = small, poorly fitted or top-dose-only effect; inactive = no such curve, though single readings can be large or run the other way.
// allowed return values: class 1 for active, class 0 for inactive

Test call, this compound: `Oc1ccccc1O`
class 0

How about this compound: `N[C@H](CCCP(=O)(O)O)C(=O)O`
class 0

Try the compound `COc1ccccc1N1CCN(CCN(C(=O)c2ccc(I)cc2)c2ccccn2)CC1`
class 0

Param item: `O=c1[nH]c2cc([N+](=O)[O-])c([N+](=O)[O-])cc2[nH]c1=O`
class 0

Entry to check: `CNCC[C@H](Oc1ccc(C(F)(F)F)cc1)c1ccccc1`
class 0

Next entry: `COC(=O)c1c(C)[nH]c(C)c1C(=O)c1ccccc1Cc1ccccc1`
class 1

Lookup `Cc1nc2sccn2c(=O)c1CCN1CCC(=C(c2ccccc2)c2ccc(F)cc2)CC1`
class 1

Another compound: `C=C[C@H]1CN2CC[C@@H]1C[C@@H]2[C@@H](O)c1ccnc2ccc(OC)cc12`
class 0

Please answer likewise for `O=C(O)c1cc(=O)c2c(Cl)cc(Cl)cc2[nH]1`
class 0

Another compound: `C=C[C@@H]1CN2CC[C@@H]1C[C@H]2[C@H](O)c1ccnc2ccc(OC)cc12`
class 0

`Cn1cc(C2=C(c3ccc(Cl)cc3Cl)C(=O)NC2=O)c2ccccc21` ?
class 1

Item: `CN=c1nc(-c2ccccc2)n(-c2ccccc2)s1`
class 1

Similarly, `CCCCN1CCC(n2c(=O)[nH]c3ccccc32)CC1` ?
class 0

Now consider `O=C(c1cc(O)c(O)c([N+](=O)[O-])c1)c1ccccc1F` and answer again.
class 1
